Source: PubChem BioAssay (NCATS)

# method: P-glycoprotein substrates identified in KB-3-1 adenocarcinoma cell line, qHTS therapeutic library screen (AID 1346986); note: nearly all actives have a fitted effect of over 60% in size
# cond: KB-3-1 parental cells viability, CellTiter-Glo, 72 h; series mostly up to 44.5 µM
Records with an inconclusive call do not appear. Activity calls are given as the source filed them. Calls come from the whole dose curve; as a rule, active = well fitted inhibition curve with a large enough effect; inconclusive = small, poorly fitted or top-dose-only effect; inactive = no such curve, though single readings can be large or run the other way.
API: response.call in 1.0 (active), 0.0 (inactive)

Observe how each entry below is paired with its result.
>  <compound>
CNC[C@H](O)c1cccc(O)c1

>  <qualitative label>
0.0

$$$$
>  <compound>
Fc1ccc(Cl)cc1-c1nc(Nc2ccncc2)c2nccnc2n1

>  <qualitative label>
0.0

$$$$
>  <compound>
Cc1n[nH]c(C)c1Cc1sc2c(c1C(=O)N1C[C@H](O)CO1)c(=O)n(C)c(=O)n2CC(C)C

>  <qualitative label>
0.0

$$$$
>  <compound>
CCN(CC)CCCC(C)Nc1nc(C)cc(Nc2ccc3nc(C)cc(N)c3c2)n1 (stereo not given)

>  <qualitative label>
0.0

$$$$
>  <compound>
OC(CCN1CCCCC1)(c1ccccc1)C1CC2C=CC1C2 (stereo not given)

>  <qualitative label>
0.0

$$$$
>  <compound>
Cc1ccccc1C(OCCN(C)C)c1ccccc1 (stereo not given)

>  <qualitative label>
0.0

$$$$

[ask] Recorded test call requested for CCn1c(-c2nonc2N)nc2cnc(Oc3cccc(NC(=O)c4ccc(OCCN5CCOCC5)cc4)c3)cc21
[reply] 1.0

[ask] Recorded test call requested for Cc1ccnc(NS(=O)(=O)c2ccc(NC(=O)Nc3ccc(S(=O)(=O)Nc4nccc(C)n4)cc3)cc2)n1
[reply] 0.0

[ask] Recorded test call requested for Oc1cccc(-c2nc(N3CCOCC3)c3oc4ncccc4c3n2)c1
[reply] 1.0

[ask] Recorded test call requested for CC(C)(Sc1ccc(CCN(CCCCC2CCCCC2)C(=O)NC2CCCCC2)cc1)C(=O)O
[reply] 0.0
